Data provenance is ChEMBL document CHEMBL4406807.

# EXPERIMENTAL_TARGET: Ribosomal protein S6 kinase alpha-1 (Homo sapiens, UniProt Q15418)
# Sequence (Q15418 whole entry): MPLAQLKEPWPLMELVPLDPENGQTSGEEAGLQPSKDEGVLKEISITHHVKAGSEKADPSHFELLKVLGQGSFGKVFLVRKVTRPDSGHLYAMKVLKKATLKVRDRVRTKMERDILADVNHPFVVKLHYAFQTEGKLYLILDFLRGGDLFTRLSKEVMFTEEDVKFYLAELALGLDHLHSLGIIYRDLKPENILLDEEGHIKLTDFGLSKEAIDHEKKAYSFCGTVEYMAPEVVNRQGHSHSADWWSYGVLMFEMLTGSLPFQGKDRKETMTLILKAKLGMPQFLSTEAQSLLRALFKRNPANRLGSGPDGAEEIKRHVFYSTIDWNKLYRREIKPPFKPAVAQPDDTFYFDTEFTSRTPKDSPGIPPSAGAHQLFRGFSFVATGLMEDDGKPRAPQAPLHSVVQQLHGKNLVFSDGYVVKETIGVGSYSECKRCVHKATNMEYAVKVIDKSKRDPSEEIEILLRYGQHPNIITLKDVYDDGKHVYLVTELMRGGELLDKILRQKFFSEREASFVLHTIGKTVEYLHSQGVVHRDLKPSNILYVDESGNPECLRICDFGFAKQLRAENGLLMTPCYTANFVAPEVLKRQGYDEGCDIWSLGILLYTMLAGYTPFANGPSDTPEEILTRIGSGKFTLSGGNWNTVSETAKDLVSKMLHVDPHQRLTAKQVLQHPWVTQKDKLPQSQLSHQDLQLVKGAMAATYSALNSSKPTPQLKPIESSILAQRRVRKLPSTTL
# METHOD_SUMMARY: Inhibition of RSK1 (unknown origin) by mobility shift assay
Overview of reported IC50 across a group of compounds:
# value in nM; strip the unit string

>  <SMILES_CODE>
CNC(=O)C[C@@H]1C[C@@H](c2ccc(F)c(F)c2)[C@H](NC(=O)c2cc(-c3c(Cl)cnn3C)c(Cl)o2)CN1

>  <RESULT_UNIT>
nM

>  <IC50>
131

$$$$
>  <SMILES_CODE>
Cn1ncc(Cl)c1-c1cc(C(=O)N[C@@H]2CN[C@H](CCO)C[C@H]2c2ccc(F)c(F)c2)oc1Cl

>  <RESULT_UNIT>
nM

>  <IC50>
32

$$$$
>  <SMILES_CODE>
Cn1ncc(Cl)c1-c1cc(C(=O)N[C@@H]2CNCC[C@H]2c2ccc(F)c(F)c2)oc1Cl.O=C(O)C(O)C(O)C(=O)O

>  <RESULT_UNIT>
nM

>  <IC50>
48

$$$$

I would be grateful if you could share the reported IC50 for `Cn1ncc(Cl)c1-c1cc(C(=O)N[C@H](CN)Cc2ccc(F)c(F)c2)oc1Cl` . 339

* * *

# METHOD_SUMMARY: Clearance in Sprague-Dawley rat at 25 mg/kg, ig measured up to 24 hrs by LC-MS/MS analysis
# Type: ADME, organism-based
# CONDITION_NOTES: in vivo, po
PARAMETER: CL/F (mL/min/kg)
# value in mL/min/kg; strip the unit string

I would be grateful if you could share the reported CL/F for `Cn1ncc(Cl)c1-c1cc(C(=O)N[C@@H]2CN[C@H](CCO)C[C@H]2c2ccc(F)c(F)c2)oc1Cl` . 433

* * *

Overview of reported remaining at 1 h, 100 ug/ml across a group of molecules:
# METHOD_SUMMARY: Stability in human plasma at 100 ug/ml after 1 hr by LC/MS analysis
# Assay type: ADME, cell-free
# CONDITION_NOTES: read-out: Stability

>  <SMILES_CODE>
Cn1ncc(Cl)c1-c1cc(C(=O)N[C@@H]2CN[C@H](CCO)C[C@H]2c2ccc(F)c(F)c2)oc1Cl

>  <remaining at 1 h, 100 ug/ml>
> 99%

$$$$

From here, focus on the item given below.
I would be grateful if you could share the reported remaining at 1 h, 100 ug/ml for `CNC(=O)C[C@@H]1C[C@@H](c2ccc(F)c(F)c2)[C@H](NC(=O)c2cc(-c3c(Cl)cnn3C)c(Cl)o2)CN1` . > 99%

* * *

# METHOD_SUMMARY: MRT (0 to infinity) in ICR mouse at 40 mg/kg, ig measured up to 48 hrs by LC-MS/MS analysis
# Format: ADME, organism-based
# CONDITION_NOTES: in vivo, po
PARAMETER: MRT inf (h)
# value in h; strip the unit string

I would be grateful if you could share the reported MRT inf for `CNC(=O)C[C@@H]1C[C@@H](c2ccc(F)c(F)c2)[C@H](NC(=O)c2cc(-c3c(Cl)cnn3C)c(Cl)o2)CN1` . 5.3

* * *

# METHOD_SUMMARY: AUC (0 to infinity) in Sprague-Dawley rat at 40 mg/kg, ig measured up to 24 hrs by LC-MS/MS analysis
# Format: ADME, organism-based
# Set-up: dose 40 mg/kg, route […], time infinity
# CONDITION_NOTES: in vivo, po
PARAMETER: AUC(0-inf) (ng·h/mL)
# value in ng·h/mL; strip the unit string

I would be grateful if you could share the reported AUC(0-inf) for `CNC(=O)C[C@@H]1C[C@@H](c2ccc(F)c(F)c2)[C@H](NC(=O)c2cc(-c3c(Cl)cnn3C)c(Cl)o2)CN1` . 3090

* * *

# METHOD_SUMMARY: Oral bioavailability in ICR mouse at 20 mg/kg measured up to 48 hrs by LC-MS/MS analysis
# Format: ADME, organism-based
# CONDITION_NOTES: in vivo
PARAMETER: bioavailability (%)
# value in %; strip the unit string

I would be grateful if you could share the reported bioavailability for `Cn1ncc(Cl)c1-c1cc(C(=O)N[C@@H]2CNCC[C@H]2c2ccc(F)c(F)c2)oc1Cl.O=C(O)C(O)C(O)C(=O)O` . 97.9

* * *

# EXPERIMENTAL_TARGET: hERG (KCNH2) (Homo sapiens)
# Sequence (Q12809 whole entry): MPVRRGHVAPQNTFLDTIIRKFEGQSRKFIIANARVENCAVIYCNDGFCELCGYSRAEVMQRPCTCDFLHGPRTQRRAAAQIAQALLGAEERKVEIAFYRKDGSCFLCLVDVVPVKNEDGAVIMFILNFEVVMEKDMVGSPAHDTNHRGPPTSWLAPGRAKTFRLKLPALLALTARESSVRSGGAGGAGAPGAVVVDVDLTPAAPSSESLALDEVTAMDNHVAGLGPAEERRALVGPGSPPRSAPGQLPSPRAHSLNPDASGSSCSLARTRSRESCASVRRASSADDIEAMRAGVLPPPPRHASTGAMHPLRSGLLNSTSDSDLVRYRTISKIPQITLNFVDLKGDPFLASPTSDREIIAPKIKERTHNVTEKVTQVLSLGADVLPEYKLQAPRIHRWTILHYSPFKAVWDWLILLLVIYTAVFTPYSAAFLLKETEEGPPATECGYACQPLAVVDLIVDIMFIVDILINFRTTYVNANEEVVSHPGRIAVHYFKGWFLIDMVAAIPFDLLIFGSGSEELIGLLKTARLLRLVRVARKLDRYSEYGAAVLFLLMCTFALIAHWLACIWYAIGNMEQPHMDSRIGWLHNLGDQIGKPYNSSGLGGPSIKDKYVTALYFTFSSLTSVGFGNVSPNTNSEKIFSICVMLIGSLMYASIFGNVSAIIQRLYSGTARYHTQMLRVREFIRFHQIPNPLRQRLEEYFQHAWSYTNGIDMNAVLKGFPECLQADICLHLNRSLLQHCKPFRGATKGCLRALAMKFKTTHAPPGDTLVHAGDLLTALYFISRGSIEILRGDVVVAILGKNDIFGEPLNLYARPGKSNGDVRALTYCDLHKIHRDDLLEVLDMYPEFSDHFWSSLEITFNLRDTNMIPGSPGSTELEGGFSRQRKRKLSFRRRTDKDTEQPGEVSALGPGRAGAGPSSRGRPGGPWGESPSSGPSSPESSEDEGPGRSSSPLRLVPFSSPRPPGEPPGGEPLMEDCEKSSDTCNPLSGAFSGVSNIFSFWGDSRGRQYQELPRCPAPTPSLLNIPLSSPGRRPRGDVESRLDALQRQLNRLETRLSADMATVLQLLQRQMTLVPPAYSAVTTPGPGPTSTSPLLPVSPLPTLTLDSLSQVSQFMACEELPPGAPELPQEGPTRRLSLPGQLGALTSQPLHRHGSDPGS
# METHOD_SUMMARY: Inhibition of ERG in human HEK293 cells at 3 uM at -80 mV holding potential by whole-cell patch clamp assay relative to control
# Type: cell-based
# CONDITION_NOTES: HEK293 cells expressing ERG
Threshold rule: inhibition at 3 µM greater than or equal to 10% is t; below that, f.

>  <MOLECULE>
Cn1nccc1-c1ccc(C(=O)N[C@@H]2CNCC[C@H]2c2ccc(F)c(F)c2)cc1

>  <CAT>
t

$$$$
>  <MOLECULE>
Cn1ncc(Cl)c1-c1cc(C(=O)N[C@@H]2CNCC[C@H]2c2ccc(Cl)c(Cl)c2)oc1Cl

>  <CAT>
t

$$$$
>  <MOLECULE>
Cn1ncc(Cl)c1-c1cc(C(=O)N[C@@H]2CN[C@H](CCO)C[C@H]2c2ccc(F)c(F)c2)oc1Cl

>  <CAT>
f

$$$$
>  <MOLECULE>
Cn1ncc(Cl)c1-c1cc(C(=O)N[C@@H]2CN[C@H](CCNS(C)(=O)=O)C[C@H]2c2ccc(F)c(F)c2)oc1Cl

>  <CAT>
f

$$$$
>  <MOLECULE>
Cn1cc(-c2c(Br)cnn2C)cc1C(=O)N[C@@H]1CNCC[C@H]1c1ccc(Cl)cc1

>  <CAT>
t

$$$$

Please check the record `Cn1ncc(Cl)c1-c1cc(C(=O)N[C@@H]2CN[C@H](CC(N)=O)C[C@H]2c2ccc(Cl)c(Cl)c2)oc1Cl` and state if its inhibition at 3 µM is at or above 10%. t

Next molecule up: `CNC(=O)C[C@@H]1C[C@@H](c2ccc(Cl)c(Cl)c2)[C@H](NC(=O)c2cc(-c3c(Cl)cnn3C)c(Cl)o2)CN1` t

Next molecule up: `Cn1ncc(Cl)c1-c1cc(C(=O)N[C@@H]2CN[C@H](CCn3cncn3)C[C@H]2c2ccc(Cl)c(Cl)c2)oc1Cl` t

Next molecule up: `Cn1ncc(Cl)c1-c1cc(C(=O)N[C@@H]2CN[C@H](CCO)C[C@H]2c2ccc(Cl)c(Cl)c2)oc1Cl` t

Next molecule up: `Cn1ncc(Cl)c1-c1cc(C(=O)N[C@@H]2CN[C@H](CC(=O)NC3CC3)C[C@H]2c2ccc(Cl)c(Cl)c2)oc1Cl` t

Next molecule up: `Cn1ncc(Cl)c1-c1cc(C(=O)N[C@@H]2CNCC[C@H]2c2ccc(F)c(F)c2)oc1Cl.O=C(O)C(O)C(O)C(=O)O` t

Next molecule up: `Cn1ncc(Cl)c1-c1cc(C(=O)N[C@@H]2CN[C@H](CCN3CCOCC3)C[C@H]2c2ccc(Cl)c(Cl)c2)oc1Cl` t

Next molecule up: `CC(=O)NCC[C@@H]1C[C@@H](c2ccc(F)c(F)c2)[C@H](NC(=O)c2cc(-c3c(Cl)cnn3C)c(Cl)o2)CN1` f

Next molecule up: `CCC[C@@H]1C[C@@H](c2ccc(Cl)c(Cl)c2)[C@H](NC(=O)c2cc(-c3c(Cl)cnn3C)c(Cl)o2)CN1` t

Next molecule up: `Cn1ncc(Cl)c1-c1cc(C(=O)N[C@@H]2CN[C@H](CCN3CCC(O)CC3)C[C@H]2c2ccc(Cl)c(Cl)c2)oc1Cl` t

Next molecule up: `Cn1ncc(Cl)c1-c1cc(C(=O)N[C@@H]2CN[C@H](CCN3CCCCC3)C[C@H]2c2ccc(Cl)c(Cl)c2)oc1Cl` t

Next molecule up: `Cn1ncc(Cl)c1-c1cc(C(=O)N[C@@H]2CN[C@H](CC(=O)NCCO)C[C@H]2c2ccc(Cl)c(Cl)c2)oc1Cl` f

Next molecule up: Cn1ncc(Cl)c1-c1cc(C(=O)N[C@@H]2CN[C@H](CC(O)CO)C[C@H]2c2ccc(F)c(F)c2)oc1Cl (stereo not given in full) f

Next molecule up: `CN(C)CC[C@@H]1C[C@@H](c2ccc(Cl)c(Cl)c2)[C@H](NC(=O)c2cc(-c3c(Cl)cnn3C)c(Cl)o2)CN1` t

Next molecule up: `Cn1ncc(Cl)c1-c1ccc(C(=O)N[C@@H]2CNCC[C@H]2c2cccc(F)c2)cc1` t

Next molecule up: `Cn1ncc(Cl)c1-c1cc(C(=O)N[C@@H]2CN[C@H](CCCO)C[C@H]2c2ccc(Cl)c(Cl)c2)oc1Cl` t

Next molecule up: `Cn1ncc(Cl)c1-c1cc(C(=O)N[C@@H]2CN[C@H](CC(=O)O)C[C@H]2c2ccc(Cl)c(Cl)c2)oc1Cl` f

Next molecule up: `CNC(=O)C[C@@H]1C[C@@H](c2ccc(F)c(F)c2)[C@H](NC(=O)c2cc(-c3c(Cl)cnn3C)c(Cl)o2)CN1` f

Next molecule up: Cn1ncc(Cl)c1-c1cc(C(=O)N[C@@H]2CN[C@H](CC(O)CO)C[C@H]2c2ccc(Cl)c(Cl)c2)oc1Cl (stereo not given in full) t
